system-tested: HLA-A*02:01 (Homo sapiens, UniProt P04439, D140Y/D185E/D98H/E176V/E277Q/G131W/G231S/I119V/I121R/I166T/I218V/L300P/L318F/N151K/N90K/P208A/P217A/Q86G/Q94H/R138H/R169H/T345S)
method-summary: MHC binding assay (UV-ligand exchange, β2m ELISA, peptide exchange yield)
conditions: MHC class I binding score; binding to HLA-A*02:01 ranged by peptide exchange yield (UV-ligand exchange, β2m ELISA)
Text: Candidate peptides for T cell based therapies according to the present invention were further tested for their MHC binding capacity (affinity). The individual peptide-MHC complexes were produced by UV-ligand exchange, where a UV-sensitive peptide is cleaved upon UV-irradiation, and exchanged with the peptide of interest as analyzed. Only peptide candidates that can effectively bind and stabilize the peptide-receptive MHC molecules prevent dissociation of the MHC complexes. […]
quantity-measured: Peptide exchange

Request the reported Peptide exchange associated with 577 (VMFEDGVLMRL; listed as Homo sapiens) [compound 577]
“+++” (≧50 = +++)

Check 525 (VLLEAGEGLVTI; listed as Homo sapiens) [compound 525] too.
“+++” (≧50 = +++)

Note, next up: 469 (YLASDEITTV; listed as Homo sapiens) [compound 469]
“+++” (≧50 = +++)
